test system: OVCAR-4; experiment: NCI tumour cell line growth inhibition, 48 h
Activity calls are given as the source filed them. Cut-off read from the data, not from the text of the source: active = GI50 up to about 1.1 µM and inactive = higher.
In this section, each of the molecules is paired with its reported GI50.

Solved cases (3 shown):
O=C(O)C1C2C=CC(O2)C1C(=O)NCc1cccnc1 (configuration not stated)    > 100 µM (inactive)
CN1CCN(CCCCN2c3ccccc3Sc3ccc(C(=O)c4ccccc4)cc32)CC1    2.08 µM (inactive)
CN(C)CCn1c(=O)c2ccc(NCCN3CCNCC3)c3c(=O)c4ccccc4n(c1=O)c23    5.69 µM (inactive)

Task: # return recorded GI50 for entry N#CC(c1ccccc1)N(CCOCCOCCN(C(=O)c1cccc2ccccc12)C(C#N)c1ccccc1)C(=O)c1cccc2ccccc12 (configuration not stated)
Output: > 100 µM (inactive)

Task: # return recorded GI50 for entry O=C1c2cc3c(cc2CC1Cc1ccc2c(c1)CCC2)CCC3 (configuration not stated)
Output: 82.6 µM (inactive)

Task: # return recorded GI50 for entry `Cc1ccc(-c2cc[n+]3c(n2)oc2ccccc23)cc1`
Output: 16 µM (inactive)
